What MCF7 pHER3 % inhibition was measured for each of the following?
target.of.assay: human HER3 endogenously expressed on human cancer cells (SK-Br-3, BT-474, MCF7) (human, UniProt P21860 20-1342)
procedure.text: cell-based or functional assay
Numbers only, in %.

1. MOR13670 (antibody, human IgG1, lambda, V domains shown) VH: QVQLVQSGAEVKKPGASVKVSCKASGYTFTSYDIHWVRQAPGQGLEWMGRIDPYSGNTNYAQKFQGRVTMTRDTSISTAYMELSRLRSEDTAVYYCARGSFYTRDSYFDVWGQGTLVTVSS VL: DIALTQPASVSGSPGQSITISCTGTSSDVGTYNQVSWYQQHPGKAPKLMIYGVSKRPSGVSNRFSGSKSGNTASLTISGLQAEDEADYYCQVADQGWHQVFGGGTKLTVLG	69
2. MOR14538 (antibody, human IgG1, lambda, V domains shown, Tested as IgG) VH: QVQLVQSGAEVKKPGASVKVSCKASGYTFTSYDIHWVRQAPGQGLEWMGRIDPYSGNTNYAQKFQGRVTMTRDTSISTAYMELSRLRSDDTAVYYCARGSFYTRDSYFDVWGQGTLVTVSS VL: QSALTQPASVSGSPGQSITISCTGTSSDVGTYNQVSWYQQHPGKAPKLMIYGVSKRPSGVSNRFSGSKSGNTASLTISGLQAEDEADYYCASADHSYHTVFGGGTKLTVLG	83

Okay, now this binder:
Endpoint output: MCF7 pHER3 % inhibition of MOR14534 (antibody, human IgG1, kappa, V domains shown, Tested as IgG) VH: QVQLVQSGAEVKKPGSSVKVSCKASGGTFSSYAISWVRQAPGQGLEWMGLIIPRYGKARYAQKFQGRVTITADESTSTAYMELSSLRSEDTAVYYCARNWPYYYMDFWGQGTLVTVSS VL: EIVLTQSPATLSLSPGERATLSCRASQNIVFNLAWYQQKPGQAPRLLIYDASNRATGIPARFSGSGSGTDFTLTISSLEPEDFAVYYCQQTKNRPPTFGQGTKVEIKR . Value?
71
